# ASSAY_NAME: chemical genetic growth profiling, strain panel (AID 1159580);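 also: tested at 20 µM; growth read once vehicle control cultures reached saturation at 30 °C; 1 = growth at the plate median or of vehicle wells; lower values mean less growth of the strain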
# EXPERIMENTAL_PARAMETERS: S. cerevisiae deletion strains, growth OD, locus YDL101C, strain DUN1, hits give low values
In all, about 5,500 compounds went through this assay and about 2,000 (36%) were called active. About 18% were inconclusive and are not listed. Some of the results follow.
QUANTITY_KIND: normalized growth

Below are worked cases with known answers.
| COMPOUND | normalized growth |
| --- | --- |
| CCOC(=O)c1sc(S(C)=NC(=O)Nc2ccc(Cl)cc2)c2c1CCC=C2 (stereo unspecified) | 0.97 (inactive) |
| O=[N+]([O-])c1ccc(C(O)C(O)CO)cc1 (stereo unspecified) | 1.01 (inactive) |

Enquiry: # normalized growth lookup, item COP(=S)(OC)Oc1ccc([N+](=O)[O-])cc1
Return: 0.973 (inactive)

Enquiry: What do you get for CC(C)(S)[C@@H](N)C(=O)O ?
Return: 1.03 (inactive)

Enquiry: What do you get for Fc1ccc([C@@H]2CCNC[C@H]2COc2ccc3c(c2)OCO3)cc1 ?
Return: 1.01 (inactive)

Enquiry: What do you get for O=C1CCCCC/C=C/CCCCCCCCO1 ?
Return: 0.994 (inactive)

----------
# ASSAY_NAME: chemical genetic growth profiling, strain panel (AID 1159580);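 also: tested at 20 µM; growth read once vehicle control cultures reached saturation at 30 °C; 1 = growth at the plate median or of vehicle wells; lower values mean less growth of the strain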
# EXPERIMENTAL_PARAMETERS: S. cerevisiae deletion strains, growth OD, locus YNL322C, strain KRE1 (second series), hits give low values
The campaign covered roughly 5,500 compounds. About 2,000 (36%) were called active. About 18% were inconclusive and are not listed. The list shows a part of the results.
QUANTITY_KIND: normalized growth
Please give the numeric answer without any surrounding text.

| MOLECULE | QUANTITY_KIND | VALUE |
| --- | --- | --- |
| Clc1ccc(C(Cn2ccnc2)OCc2ccsc2Cl)c(Cl)c1 (centres undefined) | normalized growth | 0.0708 |
| NC1(C(=O)O)CCCC1 | normalized growth | 1.01 |

Enquiry: # normalized growth lookup, item O=C(O)COc1ccc(Cl)cc1Cl
Return: 0.994

Enquiry: What do you get for NCC[C@@H](O)C(=O)N[C@@H]1C[C@H](N)[C@@H](O[C@H]2O[C@H](CN)[C@@H](O)[C@H](O)[C@H]2O)[C@H](O)[C@H]1O[C@H]1O[C@H](CO)[C@@H](O)[C@H](N)C1O (some centres undefined) ?
Return: 1.04

----------
Known normalized growth of a selection of molecules
# ASSAY_NAME: chemical genetic growth profiling, strain panel (AID 1159580);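 also: tested at 20 µM; growth read once vehicle control cultures reached saturation at 30 °C; 1 = growth at the plate median or of vehicle wells; lower values mean less growth of the strain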
# EXPERIMENTAL_PARAMETERS: S. cerevisiae deletion strains, growth OD, locus YJL095W, strain BCK1 (second series), hits give low values
About 2,000 (36%) of roughly 5,500 compounds were called active. About 18% were inconclusive and are not listed. The list shows a part of the results.
Please give the numeric answer without any surrounding text.

| MOLECULE | normalized growth |
| --- | --- |
| CCC(C)C(=O)c1c(O)c(C)c2oc3c(C)c(O)c(C(=O)C(C)CC)c(O)c3c2c1O (stereo unspecified) | 0.985 |
| CC1(C)C(=O)[C@@H]2O[C@@H]2[C@@]2(C)C1C[C@@H](O)[C@]1(C)C2CC[C@@]2(C)[C@H](c3ccoc3)OC(=O)C3OC321 (stereo partly specified) | 0.994 |

Enquiry: # normalized growth lookup, item CC(=O)O[C@H]1C[C@@H](OC(C)=O)C(C)(C)C2C[C@@H](O)[C@]3(C)C(CC[C@@]4(C)[C@H](c5ccoc5)OC(=O)[C@H]5O[C@]543)[C@]21C (stereo partly specified)
Return: 0.973

Enquiry: What do you get for CC(=O)O[C@H]1C[C@@]2(C)[C@@H](C[C@@H](O)C3[C@]2(C)CC[C@H]2[C@H](C)[C@H](O)CC[C@]32C)/C1=C(/CCC=C(C)C)C(=O)O (stereo partly specified) ?
Return: 1.03

Enquiry: What do you get for CC(=O)O[C@H]1C[C@@H](OC(C)=O)C(C)(C)C2C[C@@H](OC(C)=O)[C@]3(C)C(CC[C@@]4(C)[C@H](c5ccoc5)OC(=O)[C@H]5O[C@]543)[C@]21C (stereo partly specified) ?
Return: 0.995

Enquiry: What do you get for CC(=O)O[C@@H]1CC2C(C)(C)C(=O)C3OC3[C@]2(C)C2CC[C@@]3(C)[C@H](c4ccoc4)OC(=O)C4OC43[C@@]21C (stereo partly specified) ?
Return: 0.99

Data origin: PubChem BioAssay AID1159580
